Values were extracted from PubChem BioAssay (EPA / NIEHS).

Read-out: Fatty Acid-Binding Protein 1 (FABP1), FABP1 (gene 2168)
Assay: LTEA_HepaRG_FABP1: Life Technologies and Expression Analysis (LTEA) Assay for Fatty Acid-Binding Protein 1 (FABP1) using HepaRG (AID 2283494)
Settings: mRNA level, 48 h; actives raise or lower the signal
Active and inactive are the calls of the source. How the source made its calls: active means hit-call score of the fitted dose curve at least 0.9, where 1 is the maximum; inactive means score below 0.9.
Please state which outcome applies, choosing from active, inactive

Which outcome did this test record for the molecule "Nc1cnn(-c2ccccc2)c(=O)c1Cl" ?
inactive

Which outcome did this test record for the molecule CCOc1cc(C(C)(C)C)ccc1C1COC(c2c(F)cccc2F)=N1 (stereo unspecified) ?
active

Which outcome did this test record for the molecule "Cn1c(-c2ccccc2)cc(-c2ccccc2)[n+]1C" ?
active

Which outcome did this test record for the molecule "COC(=O)NC(=S)Nc1ccccc1NC(=S)NC(=O)OC" ?
inactive

Which outcome did this test record for the molecule "CCOP(=S)(OCC)Oc1nc(Cl)n(C(C)C)n1" ?
inactive

Which outcome did this test record for the molecule "CC(C)N1C(=O)c2ccccc2NS1(=O)=O" ?
inactive
